molecular target: BTK (Homo sapiens, UniProt Q06187); test: Degradation of BTK protein in Namalwa cells (Western blot; DC50, Dmax); details: read-out: Dmax (BTK degradation)
Sequence (Q06187 whole entry): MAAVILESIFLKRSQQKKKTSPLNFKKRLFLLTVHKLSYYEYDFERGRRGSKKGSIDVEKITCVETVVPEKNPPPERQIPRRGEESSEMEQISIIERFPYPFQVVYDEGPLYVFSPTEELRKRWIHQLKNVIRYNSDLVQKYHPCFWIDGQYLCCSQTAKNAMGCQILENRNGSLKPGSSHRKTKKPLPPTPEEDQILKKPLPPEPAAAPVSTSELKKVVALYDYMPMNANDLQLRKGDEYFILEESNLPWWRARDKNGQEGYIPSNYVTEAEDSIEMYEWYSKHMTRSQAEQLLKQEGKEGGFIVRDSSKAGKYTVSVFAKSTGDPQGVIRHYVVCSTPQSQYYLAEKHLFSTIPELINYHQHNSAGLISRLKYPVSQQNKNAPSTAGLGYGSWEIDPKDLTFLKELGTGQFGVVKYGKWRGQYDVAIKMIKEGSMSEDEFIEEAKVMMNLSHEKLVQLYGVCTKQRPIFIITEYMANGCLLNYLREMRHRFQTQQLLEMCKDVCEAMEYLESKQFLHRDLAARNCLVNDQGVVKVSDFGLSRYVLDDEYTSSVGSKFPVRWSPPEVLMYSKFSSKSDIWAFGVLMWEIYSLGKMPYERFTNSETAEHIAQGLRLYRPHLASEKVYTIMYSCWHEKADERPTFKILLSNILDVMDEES
The reader will find reported Dmax values listed item by item below.

Recorded Dmax, per entry:
[[record]]
molecule = "Nc1ncnc2c1c(-c1ccc(Oc3ccccc3)cc1)nn2C1CCN(C(=O)N2CC(N3CCN(c4ccc5c(c4)C(=O)N([C@@H]4CCC(=O)NC4=O)C5=O)CC3)C2)CC1"
reported = "> 90%"

[[record]]
molecule = "Nc1ncnc2c1c(-c1ccc(Oc3ccccc3)cc1)nn2C1CCN(CC2CCN(CC3CN(CC4CN(c5ccc6c(c5)CN(C5CCC(=O)NC5=O)C6=O)C4)C3)C2)CC1 (stereo not drawn)"
reported = "> 90%"

[[record]]
molecule = "Nc1ncnc2c1c(-c1ccc(Oc3ccccc3)cc1)nn2C1CCN(C(=O)N2CC(N3CCN(c4ccc5c(c4)C(=O)N([C@H]4CCC(=O)NC4=O)C5=O)CC3)C2)CC1"
reported = "> 90%"

[[record]]
molecule = "NC(=O)c1c(-c2ccc(Oc3ccccc3)cc2)nn2c1NCC[C@H]2C1CCN(C2CCN(C(=O)N3CCC(CC4CCN(c5ccc6c(c5)CN(C5CCC(=O)NC5=O)C6=O)CC4)CC3)CC2)CC1 (stereo partly drawn)"
reported = "> 75%"

[[record]]
molecule = "Nc1ncnc2c1c(-c1ccc(Oc3ccccc3)cc1)nn2C1CCN(C2CCN(CC3CN(CC4CN(c5ccc6c(c5)CN(C5CCC(=O)NC5=O)C6=O)C4)C3)CC2)CC1 (stereo not drawn)"
reported = "> 90%"

[[record]]
molecule = "NC1=NC=NC2C1C(c1ccc(Oc3ccccc3)cc1)=NN2C1CCN(C(=O)N2CCN(C3CN(c4ccc5c(c4)CN(C4CCC(=O)NC4=O)C5=O)C3)CC2)CC1 (stereo not drawn)"
reported = "> 90%"

[[record]]
molecule = "Nc1ncnc2c1c(-c1ccc(Oc3ccccc3)cc1)nn2C1CCN(C2CCN(CC3CCN(CC4CN(c5ccc6c(c5)C(=O)N(C5CCC(=O)NC5=O)C6=O)C4)CC3)CC2)CC1 (stereo not drawn)"
reported = "> 90%"

[[record]]
molecule = "Nc1ncnc2c1c(-c1ccc(Oc3ccccc3)cc1)nn2[C@@H]1CCCN(C(=O)N2CC(N3CCN(c4ccc5c(c4)C(=O)N(C4CCC(=O)NC4=O)C5=O)CC3)C2)C1 (stereo partly drawn)"
reported = "> 90%"

[[record]]
molecule = "Nc1ncnc2c1c(-c1ccc(Oc3ccccc3)cc1)nn2C1CCN(C2CCN(CCN3CCC(c4ccc(N5CCC(=O)NC5=O)cc4)CC3)C2)CC1 (stereo not drawn)"
reported = "> 90%"

[[record]]
molecule = "Nc1ncnc2c1c(-c1ccc(Oc3ccccc3)cc1)nn2C1CCN(C2CCN(CC3CCN(c4ccc(NC5CCC(=O)NC5=O)cc4)CC3)CC2)CC1 (stereo not drawn)"
reported = "> 90%"


Next, consider the following molecule.
Hi! What's the reported Dmax for Nc1ncnc2c1c(-c1ccc(Oc3ccccc3)cc1)nn2C1CCN(CCCN2CCC(CN3CCC(c4ccc(N5CCC(=O)NC5=O)cc4)CC3)C2)CC1 (stereo not drawn) on BTK (Homo sapiens, UniProt Q06187)? > 90%

---

molecular target: BTK (Homo sapiens); assay: BTK degradation, DC50 and Dmax of Table 1 (cell line not given); assay type: cell-based; set-up: endogenous in cells; conditions: concentration giving 50% reduction of BTK expression level
Catalogue of molecules with associated DC50

[[record]]
molecule = "Nc1ncnc2c1c(-c1ccc(Oc3ccccc3)cc1)nn2[C@@H]1CCCN(C2CCN(C(=O)N3CCN(CCCC4CCN(c5ccc6c(c5)C(=O)N(C5CCC(=O)NC5=O)C6=O)CC4)CC3)CC2)C1 (stereo partly shown) [Compound 189]"
target_or_system = "BTK (Homo sapiens)"
reported = "> 50 nM"

[[record]]
molecule = "Nc1ncnc2c1c(-c1ccc(Oc3ccccc3)cc1)nn2C1CCN(CC2CCN(C(=O)N3CCC(CN4CCN(c5ccc6c(c5)CN(C5CCC(=O)NC5=O)C6=O)CC4)CC3)CC2)CC1 (stereo not shown) [Compound 42]"
target_or_system = "BTK (Homo sapiens)"
reported = "10 to 50 nM"

[[record]]
molecule = "Nc1ncnc2c1c(-c1ccc(Oc3ccccc3)cc1)nn2[C@@H]1CCCN(C2CCN(CCCN3CCC(c4ccc5c(c4)C(=O)N(C4CCC(=O)NC4=O)C5=O)CC3)CC2)C1 (stereo partly shown) [Compound 153]"
target_or_system = "BTK (Homo sapiens)"
reported = "> 50 nM"

[[record]]
molecule = "Nc1ncnc2c1c(-c1ccc(Oc3ccccc3)cc1)nn2C1CCN(C(=O)N2CCC(C3CCN(c4ccc5c(c4)C(=O)N(C4CCC(=O)NC4=O)C5=O)CC3)CC2)CC1 (stereo not shown) [Compound 79]"
target_or_system = "BTK (Homo sapiens)"
reported = "> 50 nM"

[[record]]
molecule = "Nc1ncnc2c1c(-c1ccc(Oc3ccccc3)cc1)nn2C1CCN(C(=O)N2CCC(CCC3CCN(c4ccc5c(c4)CN(C4CCC(=O)NC4=O)C5=O)CC3)CC2)CC1 (stereo not shown) [Compound 102]"
target_or_system = "BTK (Homo sapiens)"
reported = "10 to 50 nM"


// lookup DC50 for Nc1ncnc2c1c(-c1ccc(Oc3ccccc3)cc1)nn2[C@@H]1CCCN(CC2CCN(C(=O)N3CCN(c4ccc5c(c4)CN(C4CCC(=O)NC4=O)C5=O)CC3)CC2)C1 (stereo partly shown) [Compound 26] > 50 nM

# lookup: DC50 of Nc1ncnc2c1c(-c1ccc(Oc3ccccc3)cc1)nn2C1CCN(CCOCCC2CCN(c3ccc4c(c3)C(=O)N(C3CCC(=O)NC3=O)C4=O)CC2)CC1 (stereo not shown) [Compound 19] 10 to 50 nM

What DC50 value was documented for this molecule, Nc1ncnc2c1c(-c1ccc(Oc3ccccc3)cc1)nn2[C@@H]1CCCN(C2CCN(C(=O)N3CCC(CCN4CCN(c5ccc6c(c5)CN(C5CCC(=O)NC5=O)C6=O)CC4)CC3)CC2)C1 (stereo partly shown) [Compound 182] ? 10 to 50 nM

Dear colleague, I am looking for the recorded DC50 of the following molecule: Nc1ncnc2c1c(-c1ccc(Oc3ccccc3)cc1)nn2[C@@H]1CCCN(C2CCN(C(=O)N3CCC(N4CCC(c5ccc6c(c5)CN(C5CCC(=O)NC5=O)C6=O)CC4)CC3)CC2)C1 (stereo partly shown) [Compound 166] 10 to 50 nM

I'd like to know its DC50. The molecule in question is Nc1ncnc2c1c(-c1ccc(Oc3ccccc3)cc1)nn2[C@@H]1CCCN(CC2CCN(C(=O)N3CCC(C4CCN(c5ccc6c(c5)C(=O)N(C5CCC(=O)NC5=O)C6=O)CC4)CC3)CC2)C1 (stereo partly shown) [Compound 29] > 50 nM

Can you look up the measured DC50 of Nc1ncnc2c1c(-c1ccc(Oc3ccccc3)cc1)nn2C1CCN(C(=O)N2CCC(CCCN3CCN(c4ccc5c(c4)C(=O)N(C4CCC(=O)NC4=O)C5=O)CC3)CC2)CC1 (stereo not shown) [Compound 117] for me? > 50 nM

Bench note: what DC50 did Nc1ncnc2c1c(-c1ccc(Oc3ccccc3)cc1)nn2[C@@H]1CCCN(C(=O)N2CCN(CCCC3CCN(c4ccc5c(c4)CN(C4CCC(=O)NC4=O)C5=O)CC3)CC2)C1 (stereo partly shown) [Compound 110] show? > 50 nM

DC50 for Nc1ncnc2c1c(-c1ccc(Oc3ccccc3)cc1)nn2C1CCN(C(=O)N2CCN(CCCC3CCN(c4ccc5c(c4)C(=O)N(C4CCC(=O)NC4=O)C5=O)CC3)CC2)CC1 (stereo not shown) [Compound 121] ? > 50 nM

---

target: BTK (Homo sapiens); experiment: Degradation of BTK protein in Namalwa cells (Western blot; DC50, Dmax); conditions: read-out: Dmax (BTK degradation)
value_type: Dmax

[[record]]
compound = "Nc1ncnc2c1c(-c1ccc(Oc3ccccc3)cc1)nn2[C@@H]1CCCN(C2CCN(CC3CCN(c4ccc(C(=O)NC5CCC(=O)NC5=O)cc4)CC3)CC2)C1 (some centres unmarked)"
target_or_system = "BTK (Homo sapiens)"
value_type = "Dmax"
reported = "> 75%"


Which Dmax is listed for NC1=NC=NC2C1C(c1ccc(Oc3ccccc3)cc1)=NN2[C@@H]1CCCN(C(=O)N2CCN(C3CN(c4ccc5c(c4)CN(C4CCC(=O)NC4=O)C5=O)C3)CC2)C1 (some centres unmarked) ? > 90%

---

molecular target: BTK (Homo sapiens, UniProt Q06187); assay: Degradation of BTK protein in Namalwa cells (Western blot; DC50, Dmax); settings: BTK degradation; cell line not given
Listing of recorded DC50 by entry.

Can you look up the measured DC50 of Nc1ncnc2c1c(-c1ccc(Oc3ccccc3)cc1)nn2C1CCN(C2CCN(C(=O)N3CCC(CCCN4CCN(c5ccc6c(c5)CN(C5CCC(=O)NC5=O)C6=O)CC4)CC3)CC2)CC1 (centres unmarked) for me? 10 to 50 nM

If you can, please state the reported DC50 value of NC(=O)c1c(-c2ccc(Oc3ccccc3)cc2)nn2c1NCCC2C1CCN(CC2CCN(C(=O)N3CCC(N4CCN(c5ccc6c(c5)CN(C5CCC(=O)NC5=O)C6=O)CC4)CC3)CC2)CC1 (centres unmarked) . < 10 nM
